# target-desc: DKaiR1D (Drosophila melanogaster, UniProt Q9VDH5)
reported-property: pIC50
pIC50 here is simply -log10 of the concentration when that concentration is written in mol/L.

QUERY: What does the data say about its pIC50? Entry: CN[C@H](CC(=O)O)C(=O)O
RESULT: 3.05

---

Kindly supply the reported EC50 values for the records listed here.
# target-desc: DGluR1A (Drosophila melanogaster)
# Sequence (Q03445 28-991): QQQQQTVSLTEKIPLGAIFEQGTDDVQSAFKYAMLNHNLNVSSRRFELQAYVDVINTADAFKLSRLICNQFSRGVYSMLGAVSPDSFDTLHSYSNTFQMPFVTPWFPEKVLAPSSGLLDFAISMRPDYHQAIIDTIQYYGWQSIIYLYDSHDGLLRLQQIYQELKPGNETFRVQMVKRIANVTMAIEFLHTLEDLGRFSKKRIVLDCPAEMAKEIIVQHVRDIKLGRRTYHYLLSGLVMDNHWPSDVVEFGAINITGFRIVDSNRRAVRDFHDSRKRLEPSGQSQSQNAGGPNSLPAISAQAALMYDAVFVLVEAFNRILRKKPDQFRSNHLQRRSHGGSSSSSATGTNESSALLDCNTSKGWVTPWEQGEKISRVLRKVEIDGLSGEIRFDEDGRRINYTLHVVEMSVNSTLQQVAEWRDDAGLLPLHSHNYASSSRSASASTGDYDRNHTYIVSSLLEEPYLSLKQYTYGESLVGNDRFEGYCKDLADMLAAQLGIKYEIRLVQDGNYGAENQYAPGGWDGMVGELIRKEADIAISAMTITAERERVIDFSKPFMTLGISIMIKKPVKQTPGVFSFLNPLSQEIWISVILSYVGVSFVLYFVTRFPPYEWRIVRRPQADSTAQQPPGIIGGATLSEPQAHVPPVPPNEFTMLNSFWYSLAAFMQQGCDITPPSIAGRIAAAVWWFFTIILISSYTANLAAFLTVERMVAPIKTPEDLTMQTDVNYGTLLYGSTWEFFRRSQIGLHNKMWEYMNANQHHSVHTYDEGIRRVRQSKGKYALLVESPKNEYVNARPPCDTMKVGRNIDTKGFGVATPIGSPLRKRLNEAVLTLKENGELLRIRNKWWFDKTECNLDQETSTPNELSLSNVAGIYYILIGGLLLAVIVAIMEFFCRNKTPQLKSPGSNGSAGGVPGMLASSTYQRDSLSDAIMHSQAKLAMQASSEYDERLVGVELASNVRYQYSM
# assay-procedure: DGluR1A coexpressed with Apis Stg1 in Xenopus oocytes
# Assay type: cell-based
Your answer is read as µM, so omit the unit and give the number.

QUERY: Which EC50 value belongs to C=C(C)[C@H]1CN[C@H](C(=O)O)[C@H]1CC(=O)O [kainate] ?
RESULT: 125

QUERY: Please answer likewise for N[C@@H](CCC(=O)O)C(=O)O [glutamate]
RESULT: 136

# credit: paper PMC5145767
